The reported measurements were obtained from ChEMBL document CHEMBL4152290.

Assay: Stability of the compound in PBS containing 10% DMSO at 25 degC measured after 48 hrs by HPLC analysis
Assay type: physicochemical
Settings: buffer
Stability by entry:
Write the value in % as a bare number.

Problem: Which Stability value belongs to O=C(CSc1nc2ccccc2c(=O)[nH]1)NC1CCCCCC1 ?
Result: 123

Problem: Which Stability value belongs to C[C@H]1CC[C@H](NC(=O)CSc2nc3ccccc3c(=O)[nH]2)CC1 ?
Result: 20

Problem: Which Stability value belongs to CC1CCC(NC(=O)CSc2nc3ccccc3c(=O)[nH]2)CC1 (stereo not drawn) ?
Result: 125

---

MIC by entry:
Tested on: Mycobacterium tuberculosis
Assay: Antitubercular activity against Mycobacterium tuberculosis H37Rv ATCC 27294 after 7 days by resazurin dye based assay
Format: functional
Settings: H37Rv ATCC 27294, 168 h

Some compounds with known MIC results, for comparison:
compound: CCCc1ccc(NC(=O)CSc2nc3ccccc3c(=O)[nH]2)cc1
MIC: > 28.3 µM
--
compound: CCCCCc1ccc(NC(=O)CSc2nc3ccccc3[nH]2)cc1
MIC: > 70.7 µM
--
compound: CCCCCc1ccc(NC(=O)CSc2nc3ccccc3c(=O)[nH]2)cc1
MIC: 26.2 µM
--
compound: O=C(CSc1nc2ccccc2c(=O)[nH]1)NCc1ccccc1
MIC: 4.8 µM
--
compound: O=C(CSc1nc2ccccc2c(=O)[nH]1)Nc1ccc(Cl)cc1
MIC: 28.9 µM

Problem: Which MIC value belongs to CC1CCCCC1NC(=O)CSc1nc2ccccc2[nH]1 (stereo not drawn) ?
Result: > 33 µM

Problem: Which MIC value belongs to O=C(CSc1nc2ccccc2c(=O)[nH]1)N[C@H]1CCc2ccccc2C1 ?
Result: > 27.4 µM

Problem: Which MIC value belongs to O=C(CSc1nc2ccccc2c(=O)[nH]1)Nc1ccccc1 ?
Result: > 32.1 µM
